- Test system: Aedes aegypti
- EXPERIMENTAL_PROTOCOL: Example B7: evaluation of insecticide impregnated polymer surfaces
- Type: in vivo
- CONDITION_NOTES: HDPE; AI content 2 wt %; polymer 6 to 8 weeks old; after one hour
MEASURE_NAME: knock-down

These recorded examples may help you get a feel for the data.
CO/C=C(/C(=O)OC)c1ccccc1Oc1ncc(C(F)(F)F)s1
100%
CO/C=C(/C(=O)OC)c1ccccc1Oc1cc(C(F)(F)F)ccn1
100%
CO/C=C(/C(=O)OC)c1ccccc1Oc1ncnc(C(C)(C)C)n1
60%
CO/C=C(/C(=O)OC)c1ccccc1CO/N=C(\C)C(C)C
100%

Consider the record given below.
Exam item: Entry CO/C=C(/C(=O)OC)c1ccccc1CO/N=C(\C)OC has what knock-down?
Marked response: 95%

----------
- Tested on: Anopheles stephensi
- EXPERIMENTAL_PROTOCOL: Example B7: evaluation of insecticide impregnated polymer surfaces
- Type: in vivo
- CONDITION_NOTES: LDPE; AI content 2 wt %; polymer 8 to 12 weeks old; after one hour
- Source text: Preparation of polymeric sheets: Certain methoxyacrylate were Impregnated into three polymers: LDPE (low density polyethylene), HDPE (high density polyethylene) and PP (polypropylene) in different concentrations by mixing the respective polymer with a compound at high temperatures and the resultant polymeric material were then mould into thin discs or plaques. […]
Please provide measured knock-down for the entries that follow.
Give bare numbers, in %.

Please review the following examples before continuing.
CO/C=C(/C(=O)OC)c1ccccc1Oc1cc(C(F)(F)F)ccn1 [Compound 8]
90
CO/C=C(/C(=O)OC)c1ccccc1CO/N=C(\C)OC [Compound 22]
80
CO/C=C(/C(=O)OC)c1ccccc1CO/N=C(\C)C(C)C [Compound 12]
30
CO/C=C(/C(=O)OC)c1ccccc1Oc1ncc(C(F)(F)F)s1 [Compound 13]
100

Next up:
Exam item: Which measured knock-down value corresponds to CO/C=C(/C(=O)OC)c1ccccc1Oc1ncnc(C(C)(C)C)n1 [Compound 5] ?
Marked response: 70

----------
- Test system: Anopheles stephensi
- EXPERIMENTAL_PROTOCOL: Example B7: evaluation of insecticide impregnated polymer surfaces
- Type: in vivo
- CONDITION_NOTES: PP; AI content 2 wt %; polymer 2 to 4 weeks old; after one hour
MEASURE_NAME: knock-down

State the recorded knock-down for every item in the following list.
1. CO/C=C(/C(=O)OC)c1ccccc1CO/N=C(\C)OC
2. CO/C=C(/C(=O)OC)c1ccccc1Oc1ncc(C(F)(F)F)s1
3. CO/C=C(/C(=O)OC)c1ccccc1CO/N=C(\C)C(C)C
4. CO/C=C(/C(=O)OC)c1ccccc1Oc1ncnc(C(C)(C)C)n1

Marked response:
1. 100%
2. 100%
3. 100%
4. 90%

----------
- Tested on: An. Gambiae Kisumu sus
- EXPERIMENTAL_PROTOCOL: Example B5: bottle based cross resistance study (CDC bottle assay)
- Assay type: in vivo
- CONDITION_NOTES: 20 ppm; bottle; Kisumu sus
Please provide measured Knockdown (%) at 15 mins for the entries that follow.
Include the unit right after the number.

Please state Knockdown (%) at 15 mins for every molecule in the list that follows.
1. CO/C=C(/C(=O)OC)c1ccccc1Oc1nc(C(C)(C)C)ns1
2. CO/C=C(/C(=O)OC)c1ccccc1Oc1nnc(C(F)(F)F)s1
3. CC1(C)C(C=C(Cl)Cl)C1C(=O)OCc1cccc(Oc2ccccc2)c1 (stereo not shown) [Permethrin, reference compound]
4. CCC(=N\OC)/C(C)=N/OCc1ccccc1/C(=C\OC)C(=O)OC

Marked response:
["100%", "100%", "100%", "48%"]

Numbers sourced from patent US11882828B2.
